tested.target: HLA A2 (Homo sapiens, UniProt P04439, D140Y/D185E/D98H/E176V/E277Q/G131W/G231S/I119V/I121R/I166T/I218V/L300P/L318F/N151K/N90K/P208A/P217A/Q86G/Q94H/R138H/R169H/T345S)
Construct: endogenous in cells; host or cells: T2 cells
Type: cell-based
experimental.context: HLA A2 on T2 cells; relative increase in HLA expression vs no peptide at 26° C.
assay.readout: MSE (MHC stabilization efficiency)

Illustrative cases are given below, each with its answer.
| chain | assay.readout | experimental.result |
| --- | --- | --- |
| QMWQARLTV | MSE (MHC stabilization efficiency) | + (+ = 51-99%) |
| TLTEDFFVV (human cytomegalovirus gH CTL epitope peptide) | MSE (MHC stabilization efficiency) | ++ (++ = 100-199%) |
| QLRSVIRAL (human cytomegalovirus pp50 CTL epitope peptide) | MSE (MHC stabilization efficiency) | − (− = 0-50%) |
| KMSVRETLV (human cytomegalovirus pp150 CTL epitope peptide) | MSE (MHC stabilization efficiency) | ++ (++ = 100-199%) |
| LLVLFIVYV (human cytomegalovirus US2 CTL epitope peptide) | MSE (MHC stabilization efficiency) | − (− = 0-50%) |
| LLYPTAVDL (human cytomegalovirus gH CTL epitope peptide) | MSE (MHC stabilization efficiency) | +++ (+++ = 200-300%) |
| TLLVLFIVYV (human cytomegalovirus US2 CTL epitope peptide) | MSE (MHC stabilization efficiency) | − (− = 0-50%) |
| SMMWMRFFV (human cytomegalovirus US2 CTL epitope peptide) | MSE (MHC stabilization efficiency) | ++ (++ = 100-199%) |

// input: 6 sequences below; output: MSE (MHC stabilization efficiency) for each
1. NLALSTPFL (human cytomegalovirus IE2 CTL epitope peptide)
2. TLLVYLFSL (human cytomegalovirus US3 CTL epitope peptide)
3. TMYGGISLL (human cytomegalovirus IE1 CTL epitope peptide)
4. RIFAELEGV [reference compound]
5. FLLSHDAAL (human cytomegalovirus pp28 CTL epitope peptide)
6. YLFSLVVLV (human cytomegalovirus US3 CTL epitope peptide)

++ (++ = 100-199%)
++ (++ = 100-199%)
++ (++ = 100-199%)
++ (++ = 100-199%)
++ (++ = 100-199%)
+ (+ = 51-99%)
